Tested on: LNCaP tumor xenograft-bearing CB17-SCID mice
Assay type: in vivo, mouse
Conditions: 24 h p.i.
measure: Biodistribution Spleen

Request: Would you kindly share the measured Biodistribution Spleen for CCCCCCC(NC(=O)C(CCC(=O)O)NC(=O)NC(CCC(=O)NC(CCCNC(=O)CCC(=O)NCCCCC(NC(=O)C(CNC(=O)c1ccc([Si](F)(C(C)(C)C)C(C)(C)C)cc1)NC(=O)CN1CCN(CC(=O)[O-])CCN(CC(=O)[O-])CCN(CC(=O)[O-])CC1)C(=O)O)C(=O)O)C(=O)O)C(=O)O.[Lu+3] (centres unmarked) [^natLu/[^177Lu]Lu-7] ?
Result: 0.08 ± 0.02 % ID/g

Request: Looking for the measured Biodistribution Spleen of CSCC[C@H](NC(=O)CC[C@H](NC(=O)N[C@@H](CCC(=O)N[C@H](CCCNC(=O)CCC(=O)NCCCC[C@@H](NC(=O)[C@@H](CNC(=O)c1ccc([Si](F)(C(C)(C)C)C(C)(C)C)cc1)NC(=O)CN1CCN(CC(=O)[O-])CCN(CC(=O)[O-])CCN(CC(=O)[O-])CC1)C(=O)O)C(=O)O)C(=O)O)C(=O)O)C(=O)O.[Lu+3] [^natLu/[^177Lu]Lu-5] , can you help?
Result: 0.05 ± 0.01 % ID/g

----------
Tested on: LNCaP tumor xenograft-bearing CB17-SCID mice
Format: in vivo, mouse
Conditions: 24 h p.i.
Task for the reader: assign each of the following compounds its reported Biodistribution Submandibular gland.
Write the value in % ID/g as a bare number.

Request: Reported Biodistribution Submandibular gland, compound C#CC[C@H](NC(=O)N[C@@H](CCC(=O)N[C@H](CCCNC(=O)CCC(=O)NCCCC[C@@H](NC(=O)[C@@H](CNC(=O)c1ccc([Si](F)(C(C)(C)C)C(C)(C)C)cc1)NC(=O)CN1CCN(CC(=O)[O-])CCN(CC(=O)[O-])CCN(CC(=O)[O-])CC1)C(=O)O)C(=O)O)C(=O)O)C(=O)O.[Lu+3] [^natLu/[^177Lu]Lu-10] : ____
Result: 0.02

Request: Requested field: Biodistribution Submandibular gland. Item: CC(C)(C)[Si](F)(c1ccc(C(=O)NC[C@@H](NC(=O)CN2CCN(CC(=O)[O-])CCN(CC(=O)[O-])CCN(CC(=O)[O-])CC2)C(=O)N[C@H](CCCCNC(=O)CCC(=O)NCCC[C@@H](NC(=O)CC[C@H](NC(=O)O[C@@H](CCC(=O)O)C(=O)O)C(=O)O)C(=O)O)C(=O)O)cc1)C(C)(C)C.[Lu+3] [^natLu/[^177Lu]Lu-3]
Result: 0.03

Request: Name the reported Biodistribution Submandibular gland value associated with the compound CCCCCCC(NC(=O)C(CCC(=O)O)NC(=O)NC(CCC(=O)NC(CCCNC(=O)CCC(=O)NCCCCC(NC(=O)C(CNC(=O)c1ccc([Si](F)(C(C)(C)C)C(C)(C)C)cc1)NC(=O)CN1CCN(CC(=O)[O-])CCN(CC(=O)[O-])CCN(CC(=O)[O-])CC1)C(=O)O)C(=O)O)C(=O)O)C(=O)O.[Lu+3] (centres unmarked) [^natLu/[^177Lu]Lu-7]
Result: 0.05

Request: Recorded Biodistribution Submandibular gland for CSCC[C@H](NC(=O)CC[C@H](NC(=O)N[C@@H](CCC(=O)N[C@H](CCCNC(=O)CCC(=O)NCCCC[C@@H](NC(=O)[C@@H](CNC(=O)c1ccc([Si](F)(C(C)(C)C)C(C)(C)C)cc1)NC(=O)CN1CCN(CC(=O)[O-])CCN(CC(=O)[O-])CCN(CC(=O)[O-])CC1)C(=O)O)C(=O)O)C(=O)O)C(=O)O)C(=O)O.[Lu+3] [^natLu/[^177Lu]Lu-5] , please?
Result: 0.02

Request: Need Biodistribution Submandibular gland, item CC(C)(C)[Si](F)(c1ccc(C(=O)NC[C@@H](NC(=O)CN2CCN(CC(=O)[O-])CCN(CC(=O)[O-])CCN(CC(=O)[O-])CC2)C(=O)N[C@H](CCCCNC(=O)CCC(=O)NCCC[C@@H](NC(=O)CC[C@H](NC(=O)N[C@@H](CCc2nnn[nH]2)C(=O)O)C(=O)O)C(=O)O)C(=O)O)cc1)C(C)(C)C.[Lu+3] [^natLu/[^177Lu]Lu-11]
Result: 0.04
